experiment: soluble on expression in E. coli; label from the status in PepcDB or PDB records

>  <SEQUENCE_CODE>
GPGSMIRTTAAAARLPQSTQGWVPLMRRALEFPIDSVTFPSHFYLHTVTNGTASTVGFSPQKEPVGLTALRQCAVLVLLSPAATGNGFQDMCITLTKRTATMGSHKSEMSFPGGHVDDDETLRNAAQRETLEEVGLPPSEYEIIGSLTPITTNALSARVTPFVAVATSPAQPYRASPVEVDSIHYLHMSMLLLSASTGHARVIKYRSFTSDRPCFFPCFFASPAQTVVSSAVCRSPKATGVADDCGFDPMLPEDF

>  <soluble on expression in E. coli>
not soluble

$$$$
>  <SEQUENCE_CODE>
MFGFSNSDISVSSGHTSHLDEVLPQSMYMVDADGRMVRWSPWFRDRIAGFSDAEMASTDFLELIHPEDRALVRQRMRKILDQGVQDSLEVRIFLKGGPAFRWFLLMANRYEYAGHYFITGTGIDIT

>  <soluble on expression in E. coli>
not soluble

$$$$
>  <SEQUENCE_CODE>
MYCPFCHNDQSRVIDSRVIDSGSAIRRRRECTQCKNRFTTVEKAQLLVVKRNGLTEPFSREKVIVGVRRACQGRDVSDDALKRLAQQVEERVRLHGSSQIHANEIGLAILEPLRELDEVAYLRFASVYKSFESADDFESEIRLMRRRDRSN

>  <soluble on expression in E. coli>
not soluble

$$$$

---

test: soluble on expression in E. coli; label from the status in PepcDB or PDB records

>  <SEQUENCE_CODE>
MQERDKEPLQERFFRPHFLQAPGDMVAHEGRLCRLDCKVSGLPPPELTWLLNGQPVLPDASHKMLVRGTGVHSLLIDPLTQRDAGTYTCVATNKTGQNSFSLELTVVAKEVKKAPVILEKLQNSGVPEGHPVRLEGRVIGMPPPVFYWKKDNETIPFTRERISMHQDTTGYVCLLIQPAKKSDAGWYTLSAKNEAGIVSCTARLDIYAQWHQQIPTPISIRPSGSRYGSLTSKGLDIFSAFSSVESTMLYSCTSRSVVESDEL

>  <soluble on expression in E. coli>
not soluble

$$$$
>  <SEQUENCE_CODE>
MSTSTAPSSASSDADSLNHDENPIKAVIFDYGEVMWMQSRNVHVYRKIEEDNKLFDNSLIPTLVSKELSSILPKGFQEDLLTGIYTAKDFDRLFLSAYNRKFGSQVESLKFFSATEYDNDAVYEEAVLTACQKLRERGVKTILMLDTYHVDEKRNGRRIPNMEKYFDHVIESCKEGVKKPDPRFYQIALDCVDVQPEEVIYIDDSKINCESAAVLGIRYIQVFNSMDMLEDLQEILGFDLD

>  <soluble on expression in E. coli>
not soluble

$$$$

---

assay: soluble on expression in E. coli; label from the status in PepcDB or PDB records

>  <SEQUENCE_CODE>
MGSDKIHHHHHHMAIEHYWDQALERSTAAQLNGALVPLSTELTRIRARQGEPFELRKLKGHPPSHLLARGPKPNPFLPWDPSLEVSEIGMRHVLILNKYPVQKGHMLLITREWAPQHGWLSYDDWEALLSVDQDTKGLWFFNSSPTAGASQPHRHLQLLRRCDDDRSCPRQEWFQSLVNSSPRESCQLTQCCAATARAQNHDAQIHYQAYLTLCEKIGLGNPAENQHPRQPYNLLLTKEWMALILRSREGIAGFSINALGFAGYLLATETSDLDWLNHHGPEALLEGVVKTIQ

>  <soluble on expression in E. coli>
not soluble

$$$$
>  <SEQUENCE_CODE>
MAKYHDIASPAYILEEDLLRRNLSLIASVADRTGVEIILAFKAYALWRTFPIIREYVPHSTASSVWEARLAFEEMGAPAHTFSPAYTPEEFPEILRYSSHVTFNSLSQYYLLSPMVKNVGVSLGLRINPEYSAVETALYNPCAPGSRFGVSASELGDTLPEGIEGLHFHTLCESTGYELEKTLKIIEDRFASVLEQA

>  <soluble on expression in E. coli>
not soluble

$$$$
>  <SEQUENCE_CODE>
MDVVEVAGSWWAQEREDIIMKYEKGHRAGLPEDKGPKPFRSYNNNVDHLGIVHETELPPLTAREAKQIRREISRKSKWVDMLGDWEKYKSSRKLIDRAYKGMPMNIRGPMWSVLLNTEEMKMKNPGRYQIMKEKGKRSSEHIQRIDRDVSGTLRKHIFFRDRYGTKQRELLHILLAYEEYNPEVGYCRDLSHIAALFLLYLPEEDAFWALVQLLASERHSLQGFHSPNGGTVQGLQDQQEHVVATSQPKTMGHQSASRRRPGVARGHVFATGSLIPGPGMRTLCSSILGPL

>  <soluble on expression in E. coli>
not soluble

$$$$

---

test: soluble on expression in E. coli; label from the status in PepcDB or PDB records

>  <SEQUENCE_CODE>
GPGSMSMNVYKRQEKLRLYRALLKGANRFPLRSRREIVTEEVRGAFRHPLNDSLTTKEVDYKLLLGWERAAAIQTYAENMYWFHSRDEVSREMMHHSLERDRQRIREMERCNAVGNAEIKTPEVTEFKSSMYHVHPDYHGKIGQMPLTHSRDIWRARGQYGSDVGGPRQKFYVRRFKALFPQGW

>  <soluble on expression in E. coli>
not soluble

$$$$
>  <SEQUENCE_CODE>
MGSDKIHHHHHHMTIDTSFNFKSDTPAEKDPDTWSPTLAAYHKLLWSKSLPNGRVFTLEYEKPPFYLRHRSDVGEFCLSSDTVVPSFRKKTIDGVAKDEMNFGGLGYTIGGMMVFPAIPIERKWTINQARGCNRKISDRFDLTVECIRRYYSDAQSPLDDVLRRYVDFFTLFRDFAGYVEFFHLQDVVNSDFTAVKFFLPFEDFEATSPIPQSRDAYLQYRSAAIDFLNARNQRIQNWVAKNIKG

>  <soluble on expression in E. coli>
not soluble

$$$$

---

assay: soluble on expression in E. coli; label from the status in PepcDB or PDB records
REPORTED_PROPERTY: soluble on expression in E. coli

Examples with answers:
>  <SEQUENCE_CODE>
MTAVRRIRAAALPDLPDASWSNALLVGEELVMSGMTAHPATRQAAERGAALDAHAQALVVLGKVKALLEAAGGHVGNLYKLNVYVTRIADKDAIGRARQEFFAGQGTFPASTLVEVSGLVFPELLVEIDAWARLDIDLANCDEA

>  <REPORTED_PROPERTY>
soluble on expression in E. coli

>  <REPORTED_VALUE>
soluble

$$$$
>  <SEQUENCE_CODE>
SSSEGFICPQCMKSLGSADELFKHYEAVHDAGND

>  <REPORTED_PROPERTY>
soluble on expression in E. coli

>  <REPORTED_VALUE>
soluble

$$$$
>  <SEQUENCE_CODE>
MSLTASSSEEKADKSQELVIYSNSVSNGRGDWLTAKAKEAGFNIKMVDIAGAQLADRVIAEKNNAVADMVFGIGAVDSNKIRDQKLLVQYKPKWLDKIDQSLSDKDNYYNPVIVQPLVLIGAPDVKEMPKDWTELGSKYKGKYSIYGLQGGTGRAILASILVRYLDEKGDLGVSEKGWEVAKEYFANAYTLQKGESSVVKALDKESPIQYGMIWGSGALIGQKEQNVEFKVMTPEIGVPFVTEQTMVLSTSKKQALAKEFIDWFGQSEIQVEYSKKFGSIPANKDALKELPEDTKKFVDQVKPQNIDWEAVGKHLDEWVEKAELEYVKEGHHHHHH

>  <REPORTED_PROPERTY>
soluble on expression in E. coli

>  <REPORTED_VALUE>
soluble

$$$$
>  <SEQUENCE_CODE>
MGSDKIHHHHHHMAAWRTVVIATSCHLRVRDRQLVIESREGERTQLPLADIGVVIVENPQVTLSAALLSALAQEGTALMSCDSSHLPDGVFAPFGTHSRHTRAARVQAVWSEPFKKRCWQKIVRAKVSSQAEVLRRVGAEDAARRLENLVGKVTSGDTTGVEAQAAQVYWRSLFVNFKRWDGGLDARNGGLNYGYAVLRGALGRAIAGAGLIPAFGLHHAGELNSFNLADDLIEPFRPFVDLLVWGLFLERTGDDPLTREERMRIAQILGESCIMTERYETLLSATQIIARSLVSAGEQKESRRLILPWMGEDDVQGEVYEADGDV

>  <REPORTED_PROPERTY>
soluble on expression in E. coli

>  <REPORTED_VALUE>
not soluble

$$$$
>  <SEQUENCE_CODE>
GMKIDGETRSARKDREIIQAATAAFISKGYDGTSMEEIATKAGASKQTVYKHFTDKETLFGEVVLSTASQVNDIIESVTTLLSEAIFMEGGLQQLARRLIAVLMDEELLKLRRLIIANADRMPQLGRAWYEKGFERMLASTASCFQKLTNRGLIQTGDPYLAASHLFGMLLWIPMNEAMFTGSNRRSKAELERHADASVEAFLAVYGVQPK

>  <REPORTED_PROPERTY>
soluble on expression in E. coli

>  <REPORTED_VALUE>
soluble

$$$$

Provide soluble on expression in E. coli for all items below, preserving their order.
1. STITTEEVLVTVFQFLEKATEYPYNDPHKTLALVVHGILLTHGFRPSEEEPPENVDNWSLSVENAKIPNCFEENKYGGSYRHYKSCMTFEVRMVPLDKYVVVNAVASDVDRVFYCELKLEKYFKDTVLEGGKLVVPLRNLKWSQILKNVTDMIAVLRTQIIYALVPDSAKEGYEAKTSETHVGQSTNQQSQDSRQFSLPSRDPLRVVPPVGSRYYPSAYIDEDRDSIPVLGQGDLYPGGLPRLERTFPSGPLDGSFAAPDNGSLMGPRHSMFQRRDQRPGPGNNMLPRGAVPPGARFDEFGPRFPPDETYSTLAGWRHRQEMPNNDVDEPPPPEMYM
2. MQFQRARSDKQKNIRMSEIVNATINLYESLQYDKITLALIAKQLSFSRANLYKYVSTKEEIFLLIISGDIENWSKEVVKFFDKYDALSAEEFCKLWSELLYRHKRIIELFCILNTIIARNVSAEKLAAFKKQIHKDFTRTKKVVKRFFPFMSKEQLKFFIEYQMKYAVGVYPATIINDVQKKASELSGIPSNVKDFESSFSKFLMVILNGIEITI
3. SREIDYTAYPWFAGNMERQQTDNLLKSHASGTYLIRERPAEAERFAISIKFNDEVKHIKVVEKDNWIHITEAKKFDSLLELVEYYQCHSLKESFKQLDTTLKYPY
4. MGSDKIHHHHHHMNKSIFDDINSTNIGSYWTTLSQQMDPYLWETLMPNSKQIASDFVFYRGMSNAPKPLAPSAFGVPAIMRKRSGFDRVSDHTRYFKEGYYIDEAIRQQLLRVGANATQAEKDMINNHIFQDSMELLKGAQLTREIMRNQIIQTGKINVIGNGQTITADYQMKASHRVVNDKAWGTTGSTPFEDIQKARDLVGDDSDQVITRAVMNKATFNALMSDTNVKSTMLYDNGKLANVTIPQSELLNFLVTNYGLTVQIYDKRYMDIDGTKKKWIPDGRVIFLPDGELGKTIMSTTPEEADLAAASDVDMTLVDNGVAITTMLDSDPVNKKINVSQEVMPSFPQIDGIYILDAFAKTGTDPLATTPTAPASTTTTTDPKA
5. MDMKHTLLEALGIEIVENTAERCVAVMPVDHRTVQPFGYLHGGASVALAETAARPGAQNLIDHTTQACVGLEINANHLKSVKEGTVKAIAEPVHIGRTTIVYHIHIYDEQERLICISRCTLAVIKKLEHHHHHH
6. MGSDKIHHHHHHMVNFLNEGGYVLDFSTADFDAFTYKSIGVPLCETYRLSKGKSLIAYINDTKYEDKIKLLSDLIRYYELSSMKEHDEENRKSRAVAYKKCRSILDKAGGTMVMTATAETLKEAFDSDYISAQIDLMLNLKDGNPTEAIGKAKELIESCCKTILEFEGCTVDKDWEVPRLVDETFKHFHLMPKNISDDVKGAKSIKAILGNLKAIAQGVAELRNLYGSGHGKSSSYKGLESRHASLAIGSSTTLVRFLWDSYERHHNNEVN
7. MSVLQRIVSRRTQLSESGRQIGDWVLANAAQAAAMTSQDLAAWANVSQSSIVKFTQRLGFKGYSEFKLALTEELGRKQVMVNQPLHSNILADDPVAVIAQKLVQTKTEAMFHTTNALRLDEFSEAISWIQQAVRVQIIGIGGSALVAKDLAFKLLKLGITALTEQDSHVQIATARTLHSQDVLIAISFSGEKREILIAAEAAKQQGAKVIALTTPNKNRLREIADLALDTIADETQHRSSAIASRTAQNVLTDLIFLTLTQQRETSARQLIDDISSDIRQMR
8. MGSDKIHHHHHHMIIIELNKRQEHIIQIVKDHGPITGESIAAQLGLTRATLRPDLAILTMAGYLEARPRVGYFYTGKTGGQLLSEAVKKIKVQDYQSRPVVIDKNVSVYDAICTMFLEDVGTLFVVDQSTLLVGVVSRKDLLRASLGKQDLTSLPVNIIMTRMPNIAMCRREDSLYDIAMELIERQIDAMPVVKDTKQGLEVVGRITKTNITRAFVNLVNNE

A)
1: soluble; 2: not soluble; 3: soluble; 4: not soluble; 5: soluble; 6: not soluble; 7: not soluble; 8: not soluble
